The following compounds are listed with their measured Dmax values.
Target: IKZF2 (Homo sapiens, UniProt Q96SW2+Q9UKS7)
Experiment: HEK293 HiBiT in vitro degradation of IKZF2
Assay type: cell-based
Parameters: expressed in transfected cells
Conditions: HEK293, HEK293 HiBiT; maximum degradation at the highest concentration tested
Sequence (Q9UKS7 1-500 isoform Q9UKS7-2): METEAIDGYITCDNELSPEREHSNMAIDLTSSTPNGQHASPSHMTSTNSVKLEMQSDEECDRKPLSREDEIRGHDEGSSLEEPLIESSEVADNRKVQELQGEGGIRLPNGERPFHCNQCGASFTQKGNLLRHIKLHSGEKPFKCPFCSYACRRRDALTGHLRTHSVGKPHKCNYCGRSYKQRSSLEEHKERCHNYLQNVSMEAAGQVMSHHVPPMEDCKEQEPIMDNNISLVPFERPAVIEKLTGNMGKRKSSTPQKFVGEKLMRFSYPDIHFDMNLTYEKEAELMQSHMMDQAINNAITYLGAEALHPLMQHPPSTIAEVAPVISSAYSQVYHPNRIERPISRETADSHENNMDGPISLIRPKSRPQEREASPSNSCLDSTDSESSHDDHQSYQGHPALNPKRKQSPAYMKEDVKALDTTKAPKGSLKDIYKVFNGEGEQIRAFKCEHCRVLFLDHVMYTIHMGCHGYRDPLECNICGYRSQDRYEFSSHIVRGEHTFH
Sequence (Q96SW2 whole entry): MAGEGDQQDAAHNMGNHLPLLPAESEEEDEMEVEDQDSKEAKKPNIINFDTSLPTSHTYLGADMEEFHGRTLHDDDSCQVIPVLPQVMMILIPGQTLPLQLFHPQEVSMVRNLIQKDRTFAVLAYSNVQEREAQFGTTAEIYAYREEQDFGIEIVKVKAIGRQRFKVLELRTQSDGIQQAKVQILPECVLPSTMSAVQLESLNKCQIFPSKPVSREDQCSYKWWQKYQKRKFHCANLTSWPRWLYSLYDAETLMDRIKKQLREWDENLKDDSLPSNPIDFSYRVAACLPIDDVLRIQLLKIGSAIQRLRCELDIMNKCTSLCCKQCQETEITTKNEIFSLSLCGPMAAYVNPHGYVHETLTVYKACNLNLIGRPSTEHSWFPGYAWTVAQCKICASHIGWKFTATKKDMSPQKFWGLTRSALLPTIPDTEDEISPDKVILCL
Sequence (Q16531 whole entry partner): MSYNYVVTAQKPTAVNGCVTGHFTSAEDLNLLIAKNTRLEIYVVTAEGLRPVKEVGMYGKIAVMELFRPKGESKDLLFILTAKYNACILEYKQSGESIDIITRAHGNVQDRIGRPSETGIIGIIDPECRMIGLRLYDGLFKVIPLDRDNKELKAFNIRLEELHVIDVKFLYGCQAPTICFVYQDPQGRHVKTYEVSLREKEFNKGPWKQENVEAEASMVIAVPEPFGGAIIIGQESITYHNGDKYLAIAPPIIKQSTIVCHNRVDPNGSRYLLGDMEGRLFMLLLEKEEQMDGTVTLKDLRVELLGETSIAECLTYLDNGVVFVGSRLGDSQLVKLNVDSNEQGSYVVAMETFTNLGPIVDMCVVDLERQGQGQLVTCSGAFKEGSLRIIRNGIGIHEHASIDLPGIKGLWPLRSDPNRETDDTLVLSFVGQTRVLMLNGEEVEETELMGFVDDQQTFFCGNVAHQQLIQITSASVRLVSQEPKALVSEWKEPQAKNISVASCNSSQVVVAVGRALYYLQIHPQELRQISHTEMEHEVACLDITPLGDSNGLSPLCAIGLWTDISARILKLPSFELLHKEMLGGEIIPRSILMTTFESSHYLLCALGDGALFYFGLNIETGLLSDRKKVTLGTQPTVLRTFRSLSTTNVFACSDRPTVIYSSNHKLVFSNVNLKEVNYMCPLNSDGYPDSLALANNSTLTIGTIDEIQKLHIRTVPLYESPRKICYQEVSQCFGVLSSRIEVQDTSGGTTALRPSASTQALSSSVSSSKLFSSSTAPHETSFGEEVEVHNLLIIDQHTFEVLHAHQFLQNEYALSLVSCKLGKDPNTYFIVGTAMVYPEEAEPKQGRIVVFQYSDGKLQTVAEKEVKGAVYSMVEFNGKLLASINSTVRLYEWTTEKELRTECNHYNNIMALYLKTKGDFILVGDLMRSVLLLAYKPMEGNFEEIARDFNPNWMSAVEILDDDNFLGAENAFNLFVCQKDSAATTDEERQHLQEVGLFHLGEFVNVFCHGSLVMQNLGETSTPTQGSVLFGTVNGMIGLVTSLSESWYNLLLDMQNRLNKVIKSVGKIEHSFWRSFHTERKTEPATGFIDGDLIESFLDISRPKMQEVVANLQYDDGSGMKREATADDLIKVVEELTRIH
Express your answer in %, writing the number without its unit.

Worked examples follow.
1) O=C1CC[C@@H](N2Cc3cc(C[C@H]4CCCC[C@@H]4NC4CCCCC4)ccc3C2=O)C(=O)N1 (single isomer, unassigned) [Example 337]	95
2) O=C1CCC(N2Cc3cc(C[C@H]4CCCC[C@@H]4NC4CCCC[C@@H]4F)ccc3C2=O)C(=O)N1 (some centres unmarked) [Example 105]	96
3) O=C1CCC(N2Cc3c(ccc(C[C@H]4OCCC[C@@H]4NCC4CCC(F)(F)CC4)c3F)C2=O)C(=O)N1 (some centres unmarked) [Example 149]	71
4) CC(C)OC1CCC(N[C@H]2CCCO[C@@H]2Cc2ccc3c(c2F)CN(C2CCC(=O)NC2=O)C3=O)CC1 (single isomer, unassigned) [Example 284]	97

Form entry - test system: IKZF2 (Homo sapiens, UniProt Q96SW2+Q9UKS7); read-out: Dmax; compound: CC(C)(C)CN[C@H]1CCCC[C@@H]1Cc1ccc2c(c1)CN(C1CCC(=O)NC1=O)C2=O (some centres unmarked) [Example 57]
89

O=C1CCC(N2Cc3cc(C[C@H]4CCCC[C@@H]4N[C@@H]4CCC(F)(F)C4)ccc3C2=O)C(=O)N1 (relative stereo) [Example 302] , same question.
89

CC(N[C@H]1CCCC[C@@H]1Cc1ccc2c(c1)CN(C1CCC(=O)NC1=O)C2=O)C1(C)CC1 (some centres unmarked) [Example 234] , same question.
98

O=C1CCC(N2Cc3cc(C[C@H]4CCCC[C@@H]4NCc4cccnc4)ccc3C2=O)C(=O)N1 (some centres unmarked) [Example 41] , same question.
90

CCC(C)(C)N[C@H]1CCCC[C@@H]1Cc1ccc2c(c1)CN(C1CCC(=O)NC1=O)C2=O (some centres unmarked) [Example 322] , same question.
72

###

Target: IKZF2 (Homo sapiens, UniProt Q96SW2+Q9UKS7)
Assay: Jurkat IKZF2 degradation (flow cytometry)
Format: cell-based
Parameters: endogenous in cells
Details: Jurkat cells, overnight incubation, flow cytometry, normalized to DMSO control; read-out: IKZF2 Degradation EC50
Sequence (Q9UKS7 whole entry): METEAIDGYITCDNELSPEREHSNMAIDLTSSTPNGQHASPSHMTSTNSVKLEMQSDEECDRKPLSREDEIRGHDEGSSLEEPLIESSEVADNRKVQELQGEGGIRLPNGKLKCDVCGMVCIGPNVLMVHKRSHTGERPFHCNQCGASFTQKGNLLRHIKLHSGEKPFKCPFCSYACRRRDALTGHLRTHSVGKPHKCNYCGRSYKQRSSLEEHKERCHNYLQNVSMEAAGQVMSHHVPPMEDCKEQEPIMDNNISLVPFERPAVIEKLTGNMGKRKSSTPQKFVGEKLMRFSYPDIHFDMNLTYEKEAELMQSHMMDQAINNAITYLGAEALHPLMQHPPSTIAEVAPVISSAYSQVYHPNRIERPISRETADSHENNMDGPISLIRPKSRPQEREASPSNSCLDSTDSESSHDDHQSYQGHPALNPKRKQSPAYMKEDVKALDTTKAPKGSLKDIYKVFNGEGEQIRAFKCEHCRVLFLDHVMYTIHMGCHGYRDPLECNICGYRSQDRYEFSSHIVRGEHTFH
Sequence (Q96SW2 whole entry): as the sequence (Q96SW2 whole entry) above
Sequence (Q16531 whole entry partner): as the sequence (Q16531 whole entry partner) above
outcome measure: DC50 (pM)
Express your answer in pM, writing the number without its unit.

1) CC(N[C@H]1CCCC[C@@H]1Cc1ccc2c(c1F)CN(C1CCC(=O)NC1=O)C2=O)C1CCOCC1 (single isomer, unassigned) [Example 287]	600

Could you tell me which DC50 is on file for CC(N[C@H]1CCCC[C@@H]1Cc1ccc2c(c1)CN(C1CCC(=O)NC1=O)C2=O)C1CCC1 (stereo partly drawn) [Example 218] ?
800

O=C1CCC(N2Cc3cc(C[C@H]4CCCC[C@@H]4NC4CCC(F)(F)CC4)ccc3C2=O)C(=O)N1 (stereo partly drawn) [Example 46] , same question.
2000

O=C1CCC(N2Cc3c(ccc(C[C@H]4OCCC[C@@H]4NC4CCC(C(F)F)CC4)c3F)C2=O)C(=O)N1 (single isomer, unassigned) [Example 283] , same question.
1400

CCN[C@H]1CCCC[C@@H]1Cc1ccc2c(c1)CN(C1CCC(=O)NC1=O)C2=O (stereo partly drawn) [Example 35] , same question.
3900

O=C1CC[C@H](N2Cc3c(ccc(C[C@H]4OCCC[C@@H]4N[C@H]4CC[C@H](F)CC4)c3F)C2=O)C(=O)N1 [Example 369] , same question.
100

O=C1CC[C@H](N2Cc3cc(C[C@H]4CCCC[C@@H]4NC4CCC(F)(F)CC4)ccc3C2=O)C(=O)N1 (single isomer, unassigned) [Example 328] , same question.
400

O=C1CCC(N2Cc3c(ccc(C[C@H]4CCCC[C@@H]4NC4CCC(F)(F)CC4)c3F)C2=O)C(=O)N1 (stereo partly drawn) [Example 84] , same question.
50

O=C1CCC(N2Cc3c(ccc(C[C@H]4OCCC[C@@H]4NC4CCC(F)(F)CC4)c3F)C2=O)C(=O)N1 (stereo partly drawn) [Example 94] , same question.
2000
